// reported melting point per item

Previously resolved entries follow.
# compound.string, melting point
rows = [
    ("CS(=O)(=O)Cc1cc(F)cc(F)c1", "135 °C"),
    ("CCCCCCCCCCCCCCCCNc1ccc(C(=O)NS(=O)(=O)c2ccccc2)cc1", "136 to 138 °C"),
    ("NC(=S)Nc1ccccc1-c1ccc(Cl)cc1", "175 to 177 °C"),
]

Would you kindly look at the next entry?
Recall and state the measured melting point for `COc1ccnc(CCc2nc3cc(-c4ccncc4)cnc3[nH]2)c1` .
237 to 238 °C

----------
// reported melting point per item

Previously resolved entries follow.
# compound, melting point
rows = [
    ("CCC(C)CCOc1c(-c2ccc(S(C)(=O)=O)cc2)cnn(-c2ccc(F)c(F)c2)c1=O (stereo unspecified)", "100 to 102 °C"),
    ("COc1nc(C(F)(F)F)cc(=O)n1-c1cc(O)c(Cl)cc1F", "147 to 149 °C"),
]

Recall and state the measured melting point for `NS(=O)(=O)c1cccc(-c2cn(-c3nc(-c4ccc(F)cc4)cc(C(F)(F)F)n3)cn2)c1` .
260 °C

Recall and state the measured melting point for `COc1ccc(C(=O)c2ccc3nc(Cl)nc(-c4cccc(Cl)c4)c3c2)cc1` .
164 °C

Recall and state the measured melting point for `O=[N+]([O-])c1cccc2c1sc1c(Nc3cccc(Br)c3)ncnc12` .
247 to 248 °C

Recall and state the measured melting point for `CNc1nc(N2CCN(C)CC2)nc2ccc(Cl)cc12` .
173 to 176 °C
